- subject_of_test: recombinant EDC3 (Homo sapiens, UniProt Q96F86)
- Construct: FLAG; expressed in transfected cells; host or cells: HEK293T
- Sequence (Q96F86 whole entry): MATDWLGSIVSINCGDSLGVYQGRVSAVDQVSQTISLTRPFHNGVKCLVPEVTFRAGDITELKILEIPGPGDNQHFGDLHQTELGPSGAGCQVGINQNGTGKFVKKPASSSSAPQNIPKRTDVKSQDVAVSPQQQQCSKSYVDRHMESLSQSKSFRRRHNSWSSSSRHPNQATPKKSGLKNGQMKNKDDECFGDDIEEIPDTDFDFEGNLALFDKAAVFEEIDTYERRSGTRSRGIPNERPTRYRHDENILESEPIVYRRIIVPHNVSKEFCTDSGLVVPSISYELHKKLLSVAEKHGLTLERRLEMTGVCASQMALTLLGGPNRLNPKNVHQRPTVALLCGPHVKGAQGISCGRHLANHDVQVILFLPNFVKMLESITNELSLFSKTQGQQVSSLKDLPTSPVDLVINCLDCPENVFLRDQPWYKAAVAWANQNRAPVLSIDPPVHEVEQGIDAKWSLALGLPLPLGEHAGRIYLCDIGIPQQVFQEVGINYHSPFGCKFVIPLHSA
- assay_text: Competitive gel-based ABPP, HHS-465 probe labeling of recombinant EDC3 in HEK293T cells
- Format: cell-based
- experimental_setup: IC50 (AHL-030), EDC3 probe labeling; read-out: IC50/EC50 (M): IC50
quantity_measured: IC50 (M)
Answer in M, number only, no unit symbol.

**Q:** Return IC50 measured with recombinant EDC3 (Homo sapiens, UniProt Q96F86) given this compound: COc1ccc(S(=O)(=O)n2cc(CS(C)(=O)=O)nn2)cc1
**A:** 5.6e-06
